Data provenance: patent US8461328B2

# assayed_target: JAK3 (Homo sapiens, UniProt P52333)
# Construct: made in house; host or cells: SF9 insect cells (baculovirus)
# Sequence (P52333 783-1124): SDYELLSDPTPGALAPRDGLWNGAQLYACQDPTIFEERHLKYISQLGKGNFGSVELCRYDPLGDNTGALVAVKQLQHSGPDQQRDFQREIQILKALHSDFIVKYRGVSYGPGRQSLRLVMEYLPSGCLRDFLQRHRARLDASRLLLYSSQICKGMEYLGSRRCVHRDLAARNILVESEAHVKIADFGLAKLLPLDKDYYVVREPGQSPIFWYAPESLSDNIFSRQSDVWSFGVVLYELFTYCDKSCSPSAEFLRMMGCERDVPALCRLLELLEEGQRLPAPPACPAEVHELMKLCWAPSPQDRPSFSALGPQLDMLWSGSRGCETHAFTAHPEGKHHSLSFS
# experiment: JAK3 inhibition (Table 4)
# Assay type: biochemical
# study_conditions: read-out: JAK3 Ki
measured_property: Ki (nM)

> print(dat)
                                    molecule                       assayed.target  endpoint.result
 1  Cc1nc2cnc3[nH]ccc3c2n1[C@H]1CCC[C@@](C)(O)C1 [Example 888]  JAK3 (Homo sapiens, UniProt P52333)               14
 2  Fc1cccc(CN2CCC(n3cnc4cnc5[nH]ccc5c43)CC2)c1 [Example 67]  JAK3 (Homo sapiens, UniProt P52333)             9.48
 3  CC(O)c1nc2cnc3[nH]ccc3c2n1C1CCCN(CCF)C1 (stereo not drawn) [Example 664]  JAK3 (Homo sapiens, UniProt P52333)              112
 4  C[C@@H](O)c1nc2cnc3[nH]ccc3c2n1C1CCC(CC#N)CC1 (stereo partly drawn) [Example 743]  JAK3 (Homo sapiens, UniProt P52333)             14.1
 5  CC(CC#N)N1CCC(n2c(C3CC(=O)N(C)C3)nc3cnc4[nH]ccc4c32)CC1 (racemic) [Example 395]  JAK3 (Homo sapiens, UniProt P52333)             96.5
 6  O=C(CC(F)(F)F)N1CCC[C@@H](n2cnc3cnc4[nH]ccc4c32)C1 [Example 296]  JAK3 (Homo sapiens, UniProt P52333)             19.5
 7  N[C@H]1CC[C@H](n2nnc3cnc4[nH]ccc4c32)CC1 [Example 279]  JAK3 (Homo sapiens, UniProt P52333)              239
 8  N#Cc1ccc(CN2CCC(n3cnc4cnc5[nH]ccc5c43)CC2)cc1 [Example 48]  JAK3 (Homo sapiens, UniProt P52333)             8.57
 9  CCS(=O)(=O)N1CCC(C)(n2cnc3cnc4[nH]ccc4c32)CC1 [Example 757]  JAK3 (Homo sapiens, UniProt P52333)             82.8
10  CS(=O)(=O)NCc1nc2cnc3[nH]ccc3c2n1C1CCNCC1(F)F (racemic) [Example 945]  JAK3 (Homo sapiens, UniProt P52333)             20.3
11  CC1CC(n2cnc3cnc4[nH]ccc4c32)CCN1 (racemic) [Example 229]  JAK3 (Homo sapiens, UniProt P52333)              417
12  OC(c1nc2cnc3[nH]ccc3c2n1C1CCCCC1)C1CC1 (racemic) [Example 940]  JAK3 (Homo sapiens, UniProt P52333)             25.5
